Biological target: p62-D3-GST, Q13501
No end group written: not given here.
measureName: Kd (nM)
Numbers only, in nM.

FIFSTIEGRTY (not fully specified) [F11 peptide (biotin-labeled X-peptide with N-terminal Phe)]: 3440

# next binder below
Prompt: Kd lookup needed for RIFSTIEGRTYK (not fully specified) [R11 peptide (biotin-labeled X-peptide with N-terminal Arg)] , thanks.
Response: 44
